pKi: −log10 of the molar value.
Below are pKi values measured for human Keap1 Kelch domain (Homo sapiens, UniProt Q14145).
Measure Name: pKi

1. CCOc1ccc(S(=O)(=O)N2CCc3ccc(C(NC(=O)c4cccc5c4-c4ccccc4C54SCCS4)C(=O)O)cc3C2)cc1C#N (centres unmarked)    6.77
2. O=C(O)CC(NC(=O)c1cccc2c1-c1ccccc1C2=O)c1ccc2c(c1)CN(S(=O)(=O)c1ccccc1)CC2 (centres unmarked)    6.03
